For each of the compounds below, state its GI50.
# Test system: Molm14^F691L
# assay.notes: Cell proliferation (CellTiter-Glo, 48 h), Molm14 F691L
# Assay type: cell-based
# reported.conditions: Homo sapiens, MOLM-14; Molm14^F691L, 48 hours
One number for each entry, in nM.

Known GI50 results, listed for orientation:
- compound: "CNc1cc(Nc2ccc(CC(=O)Nc3cccc(C(F)(F)F)c3)cc2)ncn1 [13r]"
  GI50 (nM): 1350
- compound: "Cn1nc(C(C)(C)C)cc1NC(=O)Cc1ccc(Nc2cc(Nc3ccc(S(C)(=O)=O)cc3)ncn2)cc1 [13a]"
  GI50 (nM): 1340
- compound: "CNc1cc(Nc2ccc(CC(=O)Nc3cc(C(C)(C)C)nn3C)cc2)ncn1 [13b]"
  GI50 (nM): 1350

Let us examine a further case.
(Q) Value wanted: GI50 (Molm14^F691L) of entry CC(C)(C)c1cc(NC(=O)Cc2ccc(Nc3cc(Nc4ccc(S(C)(=O)=O)cc4)ncn3)cc2)no1 [13k]
(A) 2140

* * *

# system.under.test: CSF-1R (Homo sapiens, UniProt P07333)
# Sequence (P07333 20-972, species assumed): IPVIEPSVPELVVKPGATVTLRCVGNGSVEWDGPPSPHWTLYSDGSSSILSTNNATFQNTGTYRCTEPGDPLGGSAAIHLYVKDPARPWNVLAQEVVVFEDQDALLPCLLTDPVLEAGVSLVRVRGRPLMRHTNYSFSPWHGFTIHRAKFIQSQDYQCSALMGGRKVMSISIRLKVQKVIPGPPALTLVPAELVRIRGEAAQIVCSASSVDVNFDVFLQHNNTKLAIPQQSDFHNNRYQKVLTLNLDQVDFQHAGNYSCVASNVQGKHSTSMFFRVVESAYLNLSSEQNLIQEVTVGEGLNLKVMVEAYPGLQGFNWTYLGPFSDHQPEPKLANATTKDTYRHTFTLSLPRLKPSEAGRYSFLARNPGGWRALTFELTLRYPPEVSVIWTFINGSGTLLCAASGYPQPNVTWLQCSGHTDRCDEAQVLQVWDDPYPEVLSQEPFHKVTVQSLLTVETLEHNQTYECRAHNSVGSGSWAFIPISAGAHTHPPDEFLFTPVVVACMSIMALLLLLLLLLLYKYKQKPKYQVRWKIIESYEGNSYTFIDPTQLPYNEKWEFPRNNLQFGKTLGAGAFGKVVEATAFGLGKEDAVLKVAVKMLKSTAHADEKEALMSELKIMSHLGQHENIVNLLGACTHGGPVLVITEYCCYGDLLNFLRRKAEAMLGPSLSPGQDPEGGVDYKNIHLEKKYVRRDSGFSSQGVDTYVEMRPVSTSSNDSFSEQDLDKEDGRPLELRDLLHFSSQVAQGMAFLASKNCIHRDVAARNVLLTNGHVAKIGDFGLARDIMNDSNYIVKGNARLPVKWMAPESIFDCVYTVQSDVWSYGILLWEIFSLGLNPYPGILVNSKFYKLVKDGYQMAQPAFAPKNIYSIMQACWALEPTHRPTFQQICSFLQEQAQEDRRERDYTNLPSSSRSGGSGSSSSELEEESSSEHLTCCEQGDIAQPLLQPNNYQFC
# assay.notes: Biochemical kinase selectivity assay, CSF-1R
# reported.conditions: in vitro kinase assay; read-out: CSF-1R IC50 (nM) ± SD
property: IC50 (nM)
Answers are plain numbers, in nM.

(Q) Would you mind telling me what IC50 value was observed for Cn1nc(C(C)(C)C)cc1NC(=O)Cc1ccc(Nc2cc(Nc3ccc(S(C)(=O)=O)cc3)ncn2)cc1 [13a] ?
(A) 13000

* * *

# system.under.test: FLT3 kinase (Homo sapiens, UniProt P36888)
# Construct: purchased Invitrogen
# assay.notes: Biochemical enzyme inhibition assay (microfluidics, Caliper EZ Reader II), FLT3
# reported.conditions: in vitro kinase assay; 60 min pre-incubation, ATP 190 µM; three independent experiments; read-out: FLT3 IC50 (nM) ± SD
Simple rule here: IC50 less than 900 nM is true, otherwise false.

(Q) Please indicate whether the reported IC50 of CNc1cc(Nc2ccc(CC(=O)Nc3ccc(S(C)(=O)=O)cc3)cc2)ncn1 [13v] is strictly below 900 nM.
(A) false

* * *

# system.under.test: FLT3D835Y (Homo sapiens, UniProt P36888, D835Y)
# Construct: the biochemical assay only contains the kinase domain with a single, D835Y point mutation
# assay.notes: Biochemical kinase selectivity assay, FLT3 D835Y
# reported.conditions: in vitro kinase assay; read-out: FLT3D835Y IC50 (nM) ± SD
property: IC50 (nM)
One number for each entry, in nM.

(Q) Would you mind telling me what IC50 value was observed for CC(C)(C)c1cc(NC(=O)Cc2ccc(Nc3cc(Nc4ccc(S(C)(=O)=O)cc4)ncn3)cc2)no1 [13k] ?
(A) 13700

* * *

# system.under.test: FLT3 kinase (Homo sapiens)
# Construct: purchased Invitrogen
# Sequence (P36888 27-993): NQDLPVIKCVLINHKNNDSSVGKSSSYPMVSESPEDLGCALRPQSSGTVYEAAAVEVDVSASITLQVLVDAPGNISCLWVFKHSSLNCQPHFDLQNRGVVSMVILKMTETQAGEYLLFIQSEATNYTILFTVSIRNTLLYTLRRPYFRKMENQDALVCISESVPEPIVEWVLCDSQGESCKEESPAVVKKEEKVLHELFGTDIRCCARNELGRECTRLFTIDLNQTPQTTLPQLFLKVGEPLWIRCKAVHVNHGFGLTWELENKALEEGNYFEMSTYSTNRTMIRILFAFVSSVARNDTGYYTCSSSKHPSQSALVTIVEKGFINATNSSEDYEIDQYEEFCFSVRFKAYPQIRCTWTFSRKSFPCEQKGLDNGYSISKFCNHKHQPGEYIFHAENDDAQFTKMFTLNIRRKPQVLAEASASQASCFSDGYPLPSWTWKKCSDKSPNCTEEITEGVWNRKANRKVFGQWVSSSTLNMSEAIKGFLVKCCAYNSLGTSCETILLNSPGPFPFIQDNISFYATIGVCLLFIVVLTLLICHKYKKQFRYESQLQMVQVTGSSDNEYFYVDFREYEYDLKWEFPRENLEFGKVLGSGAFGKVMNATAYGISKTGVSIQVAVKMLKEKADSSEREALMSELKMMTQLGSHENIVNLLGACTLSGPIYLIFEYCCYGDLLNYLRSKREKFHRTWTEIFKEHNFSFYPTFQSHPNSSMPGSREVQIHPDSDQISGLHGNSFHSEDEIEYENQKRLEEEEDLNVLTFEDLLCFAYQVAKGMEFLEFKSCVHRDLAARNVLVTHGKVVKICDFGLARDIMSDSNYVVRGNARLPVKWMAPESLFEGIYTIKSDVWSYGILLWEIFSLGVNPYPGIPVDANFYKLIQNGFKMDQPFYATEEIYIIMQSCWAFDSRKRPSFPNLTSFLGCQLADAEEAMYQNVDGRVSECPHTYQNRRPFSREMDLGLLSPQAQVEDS
# assay.notes: Biochemical enzyme inhibition assay (microfluidics, Caliper EZ Reader II), FLT3
# reported.conditions: ligand efficiency for FLT3 inhibition
For each of the compounds below, state its LE.
One number for each entry.

Known LE results, listed for orientation:
- compound: "CNc1cc(Nc2ccc(CC(=O)Nc3cc(C(C)(C)C)nn3C)cc2)ncn1 [13b]"
  LE: 0.35
- compound: "CN(C)c1cc(Oc2ccc(CC(=O)Nc3cc(C(C)(C)C)on3)cc2)ncn1 [13q]"
  LE: 0.24
- compound: "CNc1cc(Nc2ccc(CC(=O)Nc3ccc(S(C)(=O)=O)cc3)cc2)ncn1 [13v]"
  LE: 0.27
- compound: "CC(C)(C)c1cc(NC(=O)Cc2ccc(Nc3cc(Nc4ccc(S(C)(=O)=O)cc4)ncn3)cc2)no1 [13k]"
  LE: 0.27

(Q) Value wanted: LE (FLT3 kinase (Homo sapiens)) of entry CN1CCN(c2cc(Nc3ccc(CC(=O)NC4CC4)cc3)ncn2)CC1 [13ah]
(A) 0.25

* * *

# system.under.test: CSF-1R (Homo sapiens, UniProt P07333)
# assay.notes: Biochemical kinase selectivity assay, CSF-1R
# reported.conditions: read-out: CSF-1R IC50
property: IC50 (µM)
Answers are plain numbers, in µM.

(Q) Value wanted: IC50 (CSF-1R (Homo sapiens, UniProt P07333)) of entry Cn1nc(C(C)(C)C)cc1NC(=O)Cc1ccc(Nc2cc(Nc3ccc(S(C)(=O)=O)cc3)ncn2)cc1 [13a]
(A) 13

* * *

# system.under.test: UniProt P10721
# Sequence (P10721 26-976): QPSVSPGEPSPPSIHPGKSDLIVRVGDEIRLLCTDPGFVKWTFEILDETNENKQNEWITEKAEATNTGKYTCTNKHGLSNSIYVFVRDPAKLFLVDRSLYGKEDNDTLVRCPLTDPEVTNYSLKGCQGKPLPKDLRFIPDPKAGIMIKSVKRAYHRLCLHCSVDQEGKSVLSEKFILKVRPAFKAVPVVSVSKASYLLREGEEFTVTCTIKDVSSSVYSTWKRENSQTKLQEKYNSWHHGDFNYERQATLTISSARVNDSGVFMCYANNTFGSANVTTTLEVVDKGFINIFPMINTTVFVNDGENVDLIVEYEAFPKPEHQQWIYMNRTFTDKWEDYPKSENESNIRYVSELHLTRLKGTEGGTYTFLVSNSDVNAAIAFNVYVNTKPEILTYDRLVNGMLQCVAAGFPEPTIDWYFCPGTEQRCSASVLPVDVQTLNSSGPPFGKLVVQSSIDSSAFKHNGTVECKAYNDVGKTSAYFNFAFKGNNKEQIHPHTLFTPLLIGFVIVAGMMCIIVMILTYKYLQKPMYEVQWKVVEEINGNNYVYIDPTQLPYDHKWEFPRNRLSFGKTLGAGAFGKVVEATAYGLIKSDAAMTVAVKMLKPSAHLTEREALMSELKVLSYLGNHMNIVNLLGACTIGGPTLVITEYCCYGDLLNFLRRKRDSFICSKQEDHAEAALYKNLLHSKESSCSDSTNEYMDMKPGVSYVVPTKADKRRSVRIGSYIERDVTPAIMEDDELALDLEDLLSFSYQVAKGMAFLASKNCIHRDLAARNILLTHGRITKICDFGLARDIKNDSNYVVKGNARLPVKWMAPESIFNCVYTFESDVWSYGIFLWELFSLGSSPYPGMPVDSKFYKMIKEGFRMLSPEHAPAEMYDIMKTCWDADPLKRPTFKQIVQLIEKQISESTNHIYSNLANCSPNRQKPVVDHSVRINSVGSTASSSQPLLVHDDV
# assay.notes: Biochemical kinase selectivity assay, c-KIT
# reported.conditions: as printed in Fig. 2; read-out: cKit IC50
property: pIC50
One number for each entry, as −log10 of the molar value.

(Q) Would you mind telling me what pIC50 value was observed for Cn1nc(C(C)(C)C)cc1NC(=O)Cc1ccc(Nc2cc(Nc3ccc(S(C)(=O)=O)cc3)ncn2)cc1 [13a] ?
(A) 5.06

* * *

# system.under.test: FLT3 kinase (Homo sapiens)
# Construct: purchased Invitrogen
# assay.notes: Biochemical enzyme inhibition assay (microfluidics, Caliper EZ Reader II), FLT3
# reported.conditions: in vitro kinase assay; 60 min pre-incubation, ATP 190 µM; three independent experiments; read-out: FLT3 IC50 (nM) ± SD
property: IC50 (nM)
One number for each entry, in nM.

- compound: "CN1CCN(c2cc(Nc3ccc(CC(=O)NC4CC4)cc3)ncn2)CC1 [13ah]"
  IC50, nM: 13600
- compound: "CC(C)(C)c1cc(NC(=O)Cc2ccc(Nc3cc(NCCCN4CCCC4)ncn3)cc2)no1 [13n]"
  IC50, nM: 1030

Look up IC50 for the entries below, preserving their order.
1. O=C(Cc1ccc(Nc2cc(NCCCN3CCCCC3)ncn2)cc1)Nc1ccc(OC(F)(F)F)cc1 [13y]
2. CS(=O)(=O)c1ccc(Nc2cc(Oc3ccc(CC(=O)Nc4cccc(F)c4)cc3)ncn2)cc1 [13aa]
3. CNc1cc(Nc2ccc(CC(=O)Nc3cccc(C(F)(F)F)c3)cc2)ncn1 [13r]

(A)
1: 6460; 2: 7880; 3: 411

Look up IC50 for the entries below, preserving their order.
1. CS(=O)(=O)c1ccc(Nc2cc(Nc3ccc(CC(=O)NC4CC4)cc3)ncn2)cc1 [13ae]
2. Cn1nc(C(C)(C)C)cc1NC(=O)Cc1ccc(Nc2cccc(Nc3ccc(S(C)(=O)=O)cc3)n2)cc1
3. O=C(Cc1ccc(Nc2cc(Nc3cccc(C(F)(F)F)c3)ncn2)cc1)NC1CC1 [13af]

(A)
1. 5550
2. 5720
3. 8060

* * *

# system.under.test: FLT3 kinase (Homo sapiens, UniProt P36888)
# Construct: purchased Invitrogen
# assay.notes: Biochemical enzyme inhibition assay (microfluidics, Caliper EZ Reader II), FLT3
# reported.conditions: in vitro kinase assay; 60 min pre-incubation, ATP 190 µM; three independent experiments; read-out: FLT3 IC50 (nM) ± SD
# Protocol: Kinase activity was measured in a microfluidics assay that monitors the separation of a phosphorylated product from substrate[31],[32]. […] After, 1 μL was transferred into a 384-well polypropylene assay plate (Greiner, Frickenhausen, Germany). […] Percent inhibition was measured for each well comparing starting peptide to phosphorylated product peaks relative to the baseline. […] IC50 values were generated in duplicate and error was calculated from the standard deviation between values. […]
For each of the compounds below, state its IC50.
Give bare numbers, in nM.

Known IC50 results, listed for orientation:
- compound: "CNc1cc(Nc2ccc(NC(=O)Nc3cc(C(C)(C)C)nn3C)cc2)ncn1 [24b]"
  system.under.test: "FLT3 kinase (Homo sapiens, UniProt P36888)"
  experimental.result: 38.2
- compound: "CNc1cc(Nc2ccc(CC(=O)Nc3cc(C(C)(C)C)nn3C)cc2)ncn1 [13b]"
  system.under.test: "FLT3 kinase (Homo sapiens, UniProt P36888)"
  experimental.result: 37.5
- compound: "Cc1ccc(-n2nc(C(C)(C)C)cc2NC(=O)Cc2ccc(Nc3cc(Nc4ccc(S(C)(=O)=O)cc4)ncn3)cc2)cc1 [13h]"
  system.under.test: "FLT3 kinase (Homo sapiens, UniProt P36888)"
  experimental.result: 4840
- compound: "Cn1nc(C(C)(C)C)cc1NC(=O)Cc1ccc(Oc2cc(Nc3cccc(C(F)(F)F)c3)ncn2)cc1 [13f]"
  system.under.test: "FLT3 kinase (Homo sapiens, UniProt P36888)"
  experimental.result: 961
- compound: "O=C(Cc1ccc(Nc2cc(NCCCN3CCCC3)ncn2)cc1)Nc1cccc(C(F)(F)F)c1 [13ab]"
  system.under.test: "FLT3 kinase (Homo sapiens, UniProt P36888)"
  experimental.result: 9170
- compound: "COc1ccc(CNC(=O)Cc2ccc(Oc3cc(NC4CCN(Cc5ccccc5)CC4)ncn3)cc2)c(OC)c1 [13ak]"
  system.under.test: "FLT3 kinase (Homo sapiens, UniProt P36888)"
  experimental.result: 13600
- compound: "CNc1cc(Nc2ccc(CC(=O)Nc3ccc(OC(F)(F)F)cc3)cc2)ncn1 [13z]"
  system.under.test: "FLT3 kinase (Homo sapiens, UniProt P36888)"
  experimental.result: 7370

Let us examine a further case.
(Q) Would you mind telling me what IC50 value was observed for Cn1nc(C(C)(C)C)cc1NC(=O)Cc1ccc(Nc2cc(NCCCN3CCCC3)ncn2)cc1 [13d] ?
(A) 377
